Biological target: HIV-1 integrase (Human immunodeficiency virus type 1 group M subtype B, UniProt P12497)
Assay: biochemical
Type: biochemical
Details: read-out: IC50 (3^+-Processing)
IC50 vs 7 µM: less than gives MET; not less than gives NOT MET.

{"smilesRepresentation": "COC(=O)[C@@H](CO)Nc1c(C(=O)NCc2ccc(F)cc2F)c(=O)n(O)c2ncccc12", "classAssignment": "MET"}
{"smilesRepresentation": "CNc1c(C(=O)NCc2ccc(F)cc2F)c(=O)n(O)c2ncccc12", "classAssignment": "MET"}
{"smilesRepresentation": "CC(C)Nc1c(C(=O)NCc2ccc(F)cc2F)c(=O)n(O)c2ncccc12", "classAssignment": "MET"}
{"smilesRepresentation": "COC(=O)[C@H](CO)Nc1c(C(=O)NCc2ccc(F)cc2F)c(=O)n(O)c2ncccc12", "classAssignment": "MET"}
{"smilesRepresentation": "CCCCCNc1c(C(=O)NCc2ccc(F)cc2F)c(=O)n(O)c2ncccc12", "classAssignment": "NOT MET"}
{"smilesRepresentation": "NCCNc1c(C(=O)NCc2ccc(F)cc2F)c(=O)n(O)c2ncccc12", "classAssignment": "MET"}

Here is the next item to consider.
Problem: For the compound O=C(NCc1ccc(F)cc1F)c1c(NCCc2ccccc2)c2cccnc2n(O)c1=O , is IC50 under 7 µM?
NOT MET
